# system tested: T1, factor VIIIa A1/A3C1C2 dimer, wild type (human, UniProt P00451 20-391; P00451 1709-2351)
# T1 sequence 1: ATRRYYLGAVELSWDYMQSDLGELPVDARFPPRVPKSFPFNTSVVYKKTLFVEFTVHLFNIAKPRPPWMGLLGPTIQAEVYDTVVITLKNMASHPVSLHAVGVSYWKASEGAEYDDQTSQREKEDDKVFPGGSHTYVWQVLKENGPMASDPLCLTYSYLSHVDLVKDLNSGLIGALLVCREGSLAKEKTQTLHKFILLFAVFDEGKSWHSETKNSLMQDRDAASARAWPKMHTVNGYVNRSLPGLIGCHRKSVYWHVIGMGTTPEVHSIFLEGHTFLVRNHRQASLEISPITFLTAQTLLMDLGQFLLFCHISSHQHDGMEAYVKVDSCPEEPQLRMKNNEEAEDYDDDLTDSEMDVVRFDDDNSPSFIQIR
# T1 sequence 2: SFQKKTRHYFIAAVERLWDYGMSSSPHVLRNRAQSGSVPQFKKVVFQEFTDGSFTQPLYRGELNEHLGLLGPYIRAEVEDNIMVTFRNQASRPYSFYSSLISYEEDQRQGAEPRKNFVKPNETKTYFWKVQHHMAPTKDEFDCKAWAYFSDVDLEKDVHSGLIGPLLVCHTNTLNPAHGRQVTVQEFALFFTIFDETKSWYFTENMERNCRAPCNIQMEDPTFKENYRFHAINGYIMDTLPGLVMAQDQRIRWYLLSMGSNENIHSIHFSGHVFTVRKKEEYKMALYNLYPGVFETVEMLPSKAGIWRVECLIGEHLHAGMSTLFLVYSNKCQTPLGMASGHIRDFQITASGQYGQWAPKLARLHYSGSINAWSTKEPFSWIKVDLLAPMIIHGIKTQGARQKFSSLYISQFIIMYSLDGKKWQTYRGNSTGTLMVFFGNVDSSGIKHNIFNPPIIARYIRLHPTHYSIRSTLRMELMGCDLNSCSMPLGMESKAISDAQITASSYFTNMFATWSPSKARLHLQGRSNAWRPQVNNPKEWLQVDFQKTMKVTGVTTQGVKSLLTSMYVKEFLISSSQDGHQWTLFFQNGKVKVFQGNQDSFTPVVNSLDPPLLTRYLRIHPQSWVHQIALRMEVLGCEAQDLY
# test name: cell-based or functional assay
assay metric: Factor VIIIa decay rate relative to wild type, FIXa (+)

INSERT INTO results (binder, result) VALUES
  ('factor VIIIa A2 subunit, Y476F (other) SVAKKHPKTWVHYIAAEEEDWDYAPLVLAPDDRSYKSQYLNNGPQRIGRKYKKVRFMAYTDETFKTREAIQHESGILGPLLYGEVGDTLLIIFKNQASRPYNIFPHGITDVRPLYSRRLPKGVKHLKDFPILPGEIFKYKWTVTVEDGPTKSDPRCLTRYYSSFVNMERDLASGLIGPLLICYKESVDQRGNQIMSDKRNVILFSVFDENRSWYLTENIQRFLPNPAGVQLEDPEFQASNIMHSINGYVFDSLQLSVCLHEVAYWYILSIGAQTDFLSVFFSGYTFKHKMVYEDTLTLFPFSGETVFMSMENPGLWILGCHNSDFRNRGMTALLKVSSCDKNTGDYYEDSYEDISAYLLSKNNAIEPR', '1.23 relative to wild type');

Which measured Factor VIIIa decay rate relative to wild type, FIXa (+) value corresponds to factor VIIIa A2 subunit, S695A (other) SVAKKHPKTWVHYIAAEEEDWDYAPLVLAPDDRSYKSQYLNNGPQRIGRKYKKVRFMAYTDETFKTREAIQHESGILGPLLYGEVGDTLLIIFKNQASRPYNIYPHGITDVRPLYSRRLPKGVKHLKDFPILPGEIFKYKWTVTVEDGPTKSDPRCLTRYYSSFVNMERDLASGLIGPLLICYKESVDQRGNQIMSDKRNVILFSVFDENRSWYLTENIQRFLPNPAGVQLEDPEFQASNIMHSINGYVFDSLQLSVCLHEVAYWYILSIGAQTDFLSVFFSGYTFKHKMVYEDTLTLFPFSGETVFMSMENPGLWILGCHNADFRNRGMTALLKVSSCDKNTGDYYEDSYEDISAYLLSKNNAIEPR ?
0.75 relative to wild type

Where do these numbers come from? They come from patent US20090118184A1.
